B1: Protein S100-G, residues 1 to 79; numbered along this chain, P02633 (parent)
chain: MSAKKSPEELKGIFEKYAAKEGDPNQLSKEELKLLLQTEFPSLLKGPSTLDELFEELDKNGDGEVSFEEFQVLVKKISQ

- Variants of: B1
- ASSAY_METHOD_TEXT: abundance fitness (aPCA) (normalised: wild type 0, dead -1); higher = more abundant; growth selection in yeast, the domain comes from the species named
- STUDY_CONDITIONS: Bos taurus
MEASUREMENT_NAME: abundance fitness
One number for each entry.

# MUTANT_CODE, abundance fitness
records = [
    ("S48A", 0),
    ("K33A", 0.043),
    ("E31L", -0.045),
]

Would you mind listing abundance fitness for each of the following variants?
1. S2L
2. L53D
3. K75V
4. F70L
5. E69G

OUTPUT:
[-0.015, 0.053, -0.074, -0.157, 0.06]
